The reported numbers originate from PubChem BioAssay (NCI).

- Tested on: SR leukemia
- assay.notes: NCI-60 one-dose screen, 48 h
- condition.parameters: 10 µM unless noted
This is part of a sample that, as a whole, favours compounds with a hit. Of some 83,000 tested, about 20% had one in any assay. Activity calls are given as the source filed them. Rule for the calls: active = growth percent below 10; inactive = the rest.
Outcomes: Yes for active, No for inactive

input.smiles	assigned.class
COc1ccc(-n2nc(C(=O)NCC(=O)Nc3nc4cc(OC)ccc4s3)c3ccccc3c2=O)cc1	No
COc1ccc(Nc2ncccc2C(=O)NCc2cn(Cc3cc(OC)cc(OC)c3)nn2)cc1	No
CCOC(=O)c1ccc(NC(=O)NC2=NCCS2)cc1	No
COc1ccc(/C=C2\Cc3c(Br)cccc3C2=O)c(OC)c1	No
CNCCCNc1ccnc2cc(Cl)ccc12	Yes
CCCCN(CCCC)CCC(=O)c1ccc(OC)c2ccccc12	No
CC(=O)c1cccc(Nc2ncnc3ccc(NC(=O)c4ccco4)cc23)c1	No
COC(=O)CNS(=O)(=O)c1ccc2c(c1)Cc1cc(S(=O)(=O)NCC(=O)OC)ccc1-2	No
Cc1n(Cc2ccc3ccccc3n2)cc[n+]1Cc1ccc2ccccc2n1	No
Nc1nc(N)c2cc(CNc3ccc(Cl)c(Cl)c3)ccc2n1	Yes
NC(=Nc1ccccc1)SCCCSC(N)=Nc1ccccc1	No
